# Tested on: G-clamp-N3 (biotin conjugate)
# Assay Protocol: pull-down binding Z-score (relative to library population); higher = stronger binding
# Reported Conditions: RNA library: Library-1 (pre-miRNA loops + repeats)
Tag: 1.0 if measured pull-down binding Z-score is not below -0.3, 0.0 if it is.

- Construct Sequence: "AGCCCUGUUGUUGUCAGAUAGUGU [hsa-mir-550a-2]"
  Target: "G-clamp-N3 (biotin conjugate)"
  Label Class: 0.0
- Construct Sequence: "AGUCACUUAGAUUACAUGUGACU [hsa-mir-888]"
  Target: "G-clamp-N3 (biotin conjugate)"
  Label Class: 1.0
- Construct Sequence: "UUCUGUUGUCUGAAAGAAACCAA [hsa-mir-518d]"
  Target: "G-clamp-N3 (biotin conjugate)"
  Label Class: 0.0
- Construct Sequence: "AUGGAGGCUGCUUCUCCUCAGCAGCUGCCAUA [hsa-mir-3651]"
  Target: "G-clamp-N3 (biotin conjugate)"
  Label Class: 1.0
- Construct Sequence: "GUUGCUUAGAUUACAUGUAAC [hsa-mir-890]"
  Target: "G-clamp-N3 (biotin conjugate)"
  Label Class: 1.0
- Construct Sequence: "AUAGUUGAGGAGGACACCCAAGGAGAUCACUAU [hsa-let-7e]"
  Target: "G-clamp-N3 (biotin conjugate)"
  Label Class: 0.0
- Construct Sequence: "UAGGAUUUGGGAGUUAUACUA [hsa-mir-5690]"
  Target: "G-clamp-N3 (biotin conjugate)"
  Label Class: 1.0
- Construct Sequence: "GUGAGUUAGAAAAGCUCAAUUCAC [hsa-mir-4457]"
  Target: "G-clamp-N3 (biotin conjugate)"
  Label Class: 1.0
- Construct Sequence: "CUUCACUGGUGCAGUAAGAAG [hsa-mir-7853]"
  Target: "G-clamp-N3 (biotin conjugate)"
  Label Class: 1.0
- Construct Sequence: "GUUACUGUGGGAACUGGAGGUAAC [hsa-mir-132]"
  Target: "G-clamp-N3 (biotin conjugate)"
  Label Class: 1.0
- Construct Sequence: "CAGAGAUGAAAUUGGGACUCCUCU [hsa-mir-7157]"
  Target: "G-clamp-N3 (biotin conjugate)"
  Label Class: 1.0

###

# Test system: TO-N3-2 (biotin conjugate)
# Assay Protocol: pull-down binding Z-score (relative to library population); higher = stronger binding
# Reported Conditions: RNA library: Library-2
Decide using pull-down binding Z-score: a value greater than or equal to -0.4 is 1.0, a smaller one is 0.0.

- Construct Sequence: "AGAGCACCUCCUAGAGAAUGUUGAACUAAAGGUGCCC [hsa-mir-4723]"
  Label Class: 1.0
- Construct Sequence: "UACUAACAGCACUGGAGGGUGUA [hsa-mir-142]"
  Label Class: 1.0
- Construct Sequence: "GACAUCUGGGCCAACUCUGAUCUC [hsa-mir-6515]"
  Label Class: 1.0
- Construct Sequence: "GCUGCACUGUCUCCGUCUGCGG [hsa-mir-4519]"
  Label Class: 1.0
- Construct Sequence: "UUUGCCAUUAAAAGUAACGACAAA [hsa-mir-548a-1]"
  Label Class: 0.0
- Construct Sequence: "AGUCACUUACACUACAUGUCACU [hsa-mir-892a]"
  Label Class: 0.0
- Construct Sequence: "AUUUUCACUUAAU [hsa-mir-302f]"
  Label Class: 0.0
- Construct Sequence: "UCUCCUCAUUUACUGUGAAUGUGAGGGGA [IAV_invivo_PB2_1_Motif_31+IAV_invivo_PB2_1_Motif_31]"
  Label Class: 0.0
- Construct Sequence: "CUUAUGUUGGUUGCCAUAACAAGUGUGCCUAUUGGGUUCCACGUGCUAGCGCUAACAUAGG"
  Label Class: 0.0
- Construct Sequence: "ACUUUCACCAGAGAGCAGAAAGU [hsa-mir-371b]"
  Label Class: 1.0
